Overview of reported melting point across a group of compounds:

// lookup melting point for `CCCn1c(=O)c(C(=O)OCC)c(N2CCN(C(=O)c3cccs3)CC2)c2cccnc21`
92 to 96 °C

// lookup melting point for `CCOc1ccc2[nH]c(=O)n(C34CC5CC(CC(C5)C3)C4)c2c1`
146 °C

// lookup melting point for CCOC(=O)C1=C(CO)NC(C)=C(C(=O)OCc2ccccc2)C1c1ccccc1[N+](=O)[O-] (centres undefined)
51 to 57 °C

// lookup melting point for `COC1=C(OC)C(=O)C2=C(CC(CCCCCCCC(=O)O)(C(=O)O)C2)C1=O`
119 to 123 °C

// lookup melting point for `CCN(CC)CCOc1cccc2c1c1cc(F)ccc1n2Cc1ccc(F)cc1`
75 to 76 °C

// lookup melting point for `CCOC(=O)c1cn(-c2ccc(F)cc2F)c2c(F)c(F)c(F)c(C)c2c1=O`
152 to 154 °C

// lookup melting point for `O=C1CN=C(c2ccccc2Br)c2cc(F)ccc2N1`
194 to 196 °C

// lookup melting point for O=C(C=Cc1cccnc1)NCCCCC1CCN(C(Br)(c2ccccc2)C2CCCCC2)CC1 (centres undefined)
143 to 145 °C

// lookup melting point for `CCOC(=O)c1c(Cl)c2ccccc2[nH]c1=O`
186 °C

* * *

Overview of reported melting point across a group of compounds:

// lookup melting point for `CS(=O)(=O)N(CCBr)N(S(C)(=O)=O)S(C)(=O)=O`
147 to 148 °C

// lookup melting point for `COc1cc(Br)cc(-c2ccc3nonc3c2)c1`
135 to 137 °C

// lookup melting point for `Cn1cc(-c2ccc(Cl)cc2)c(=S)c(-c2cccc(C(F)(F)F)c2)c1`
239 to 242 °C

// lookup melting point for CCOC(=O)C(C)c1ccc(C(=O)c2ccc(Cl)cc2)n1C (stereo not drawn)
67 to 68 °C

// lookup melting point for `CCCCCCCCCCCCNc1cc(C)c(C)cc1N`
53 to 54 °C

Please turn your attention to the following entry.
// lookup melting point for `O=C(N1CCC1)N1CC(Oc2cccc(C(F)(F)F)c2)C1`
65 to 68 °C

* * *

property.name: melting point

// lookup melting point for CCC1c2cccn2-c2cc(OC)c(F)cc2N1S(=O)(=O)c1ccc(OC)c(C)c1 (stereo not drawn)
130 to 132 °C

// lookup melting point for `COc1ccc(Cn2c(C)cc3cn[nH]c(=O)c32)cc1`
212 to 213 °C

// lookup melting point for `COc1cc(C#N)c2c(c1OC)C(=O)CC2`
150 °C

// lookup melting point for Nc1ccc(C#Cc2ccc(OC3CN4CCC3CC4)nn2)cc1 (stereo not drawn)
212 to 220 °C

// lookup melting point for COC(=O)[C@H]1CN(C(=O)OC(C)(C)C)C[C@H]1c1ccc(OC)c(OC2CCCC2)c1 (relative stereo)
85 to 87 °C

// lookup melting point for `NC(=O)CCn1c(=S)sc2ccccc21`
226 to 227 °C

// lookup melting point for `NS(=O)(=O)c1ccc(-n2nc(C(F)F)cc2C2CCCCC2)cc1`
199 to 203 °C

// lookup melting point for `N#Cc1ccccc1Oc1ccc(Cl)cc1`
84 to 86 °C

---
// lookup melting point for `CCCCCCCCCCOc1cccc(C(=O)N(CC(=O)O)CC(=O)O)c1`
87 to 90 °C

// lookup melting point for `CN1CC=C(c2cccc(C(F)(F)F)c2)n2ncc(C#N)c21`
120 to 122 °C

// lookup melting point for `CCOC(=O)C(=CO)CCN1CCC(C2(c3ccc(F)cc3)OCCO2)CC1`
117 °C

// lookup melting point for `CSc1sc(-c2nnco2)c2c1C(=O)CC(C)(C)C2`
185 to 189 °C

// lookup melting point for OC(CCN1CC=C(c2ccc(Cl)cc2)CC1)c1ccc(Cl)cc1 (stereo not drawn)
154 to 155 °C
